Hello, the source for this data is the supplement of paper PMC10567573, in case you need it.

Assay: protein stability index of a GFP-peptide fusion (GPS, HEK-293T) (PSI 1-6); higher = more stable;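 note: 24-mer peptide tiles fused after GFP, lentivirally expressed, FACS-sorted into six equal bins by GFP/DsRed ratio, decoded by Illumina sequencing, PSI is the read-weighted mean bin number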
Conditions: treatment: DMSO; c terminus: a fixed tail appended
Reported property: protein stability index

Some sequences with known protein stability index results, for comparison:
# Item sequence, protein stability index
records = [
    ("TESEIESETDFETEPETAPTTEPE [GNAS]", 5.66),
    ("MQGAYCTFPASVLAPVPTHSTVSE [DUSP5]", 3.47),
    ("PILKVQYHPRDQNKVLVCPMKSAP [RBBP5]", 2.99),
    ("EGYTSFWNDCISSGLRGGILIELA [GOLPH3L]", 3.14),
    ("FQTRQEMTSMSAELKMRAIQAEER [LRRC45]", 4.12),
]

Per the record, QKIQFKRETASLKLLPHQPRIVEM [PDZK1] has protein stability index of 2.54

Per the record, IKLIDFGIAHKIEAGNEFKNIFGT [DAPK3] has protein stability index of 2.47

---

Experiment: protein stability index of a GFP-peptide fusion (GPS, HEK-293T) (PSI 1-6); higher = more stable
Conditions: treatment: DMSO; c terminus: a fixed tail appended
Returns one of True or False; True when protein stability index is >= 4.

Please review the following examples before continuing.
# Item sequence, Class
data = [
    ("ELTLARTDLEMQIEGLKEELAYLR [KRT16]", "False"),
    ("SSPSVSGPRRLVSCLSSQSSALSQ [SPACA3]", "False"),
]

Moving on to another sequence below.
Task: Given the entry KPYDPPGEKMVAAKVKGEKLDKKL [ATF4] , answer whether its protein stability index meets or surpasses 4.
Output: True

---

Assay: protein stability index of a GFP-peptide fusion (GPS, HEK-293T) (PSI 1-6); higher = more stable
Conditions: treatment: DMSO; c terminus: a fixed tail appended
protein stability index: recorded values
Response field accepts a number only; no unit should be typed.

Some sequences with known protein stability index results, for comparison:
# Item sequence, Reported property, Assay result
measured = [
    ("WIGKQLPTPVGAVQQDPALSSNRE [CSNK1G3]", "protein stability index", 4.11),
    ("PGSIIGPQQHFLEEKQASLWVQGD [CDC14A]", "protein stability index", 4.04),
]

Per the record, SPFTNLLNGSSQPTTRNYPELNNN [CDC14A] has protein stability index of 4.04

---

Test: protein stability index of a GFP-peptide fusion (GPS, HEK-293T) (PSI 1-6); higher = more stable
Settings: treatment: MLN4924 1 uM, 8 h; c terminus: a fixed tail appended
Returns one of label 1 or label 0; label 1 when protein stability index is >= 3.

Please review the following examples before continuing.
# Item sequence, Class
data = [
    ("TVTVISPLELMRTKLQAQHVSYRE [SLC25A39]", "label 0"),
    ("YKMFASRRKQRYWPFSMDCTGTEA [LOXL2]", "label 0"),
    ("SGFLKEMACPYSVLISGDIKDRLK [FAM98B]", "label 0"),
    ("PICSANHKESKMTIFEKENFIGRQ [CRYBA1]", "label 1"),
    ("DRKGYMFDYEYDWIGKQLPTPVGA [CSNK1G3]", "label 0"),
    ("PEGNILRDRFKSFQRRNMIEPRER [NOP53]", "label 1"),
    ("AGTGASRSSHSSDSGGSDVDLDPT [ELF3]", "label 1"),
    ("EEKVRDLLWAKFTNSDTPTSFNHM [TOR1AIP2]", "label 1"),
    ("DTRVYIWDPHNGDILMEFGHLFPP [WSB1]", "label 0"),
    ("KGGLVWDENSSDGRYVKENCKPLK [CLK3]", "label 1"),
]

Task: Given the entry EPITGWRKTVCHNGVLGLSRLLFF [LPCAT4] , answer whether its protein stability index meets or surpasses 3.
Output: label 0

Task: Given the entry KDSVMQQNLVYYRFHRARWGLEEE [P3H4] , answer whether its protein stability index meets or surpasses 3.
Output: label 0

Task: Given the entry LAIKKQQHIDNITQIEDATEKLKA [TRIM14] , answer whether its protein stability index meets or surpasses 3.
Output: label 1

Task: Given the entry GAFGIVHLCLRKADQKLVIIKQIP [NEK8] , answer whether its protein stability index meets or surpasses 3.
Output: label 0

Task: Given the entry IRTSERVTLIVDNTRFVVDPSIFT [BTBD10] , answer whether its protein stability index meets or surpasses 3.
Output: label 0

Task: Given the entry PGGLTLEEHSLEQVQSMVVGEVLK [SPDEF] , answer whether its protein stability index meets or surpasses 3.
Output: label 1

Task: Given the entry PLRLFLIIANTMAFQNDVYEWARD [SCD] , answer whether its protein stability index meets or surpasses 3.
Output: label 0

Task: Given the entry PGFLSTAEEETLSRELEPELRRRR [ALKBH7] , answer whether its protein stability index meets or surpasses 3.
Output: label 1

Task: Given the entry KMLGNPSRLPAKCPGKGAWSIPWK [FKBP8] , answer whether its protein stability index meets or surpasses 3.
Output: label 0

---

Test: protein stability index of a GFP-peptide fusion (GPS, HEK-293T) (PSI 1-6); higher = more stable
Settings: treatment: DMSO; c terminus: a fixed tail appended
protein stability index: recorded values
Response field accepts a number only; no unit should be typed.

Per the record, KMLSKAVDALKSDKKVRTIIIRSE [AUH] has protein stability index of 1.81

Per the record, PLCNFNIIESFTELARIVLLRHRM [RAB40A] has protein stability index of 2.6

Per the record, EESPNGSEGACEKEKQSRDFQGRI [RHOBTB1] has protein stability index of 5.35

Per the record, PLSPAFFGEDGIFRHDRLRFRDFV [PBXIP1] has protein stability index of 2.77

Per the record, LGRMFGSGREHNFTRPNEKGEYEV [BTBD10] has protein stability index of 3.95

---

Assay: protein stability index of a GFP-peptide fusion (GPS, HEK-293T) (PSI 1-6); higher = more stable
Conditions: treatment: MLN4924 1 uM, 8 h; c terminus: a fixed tail appended
Returns one of Satisfied or Not satisfied; Satisfied when protein stability index is >= 3.

Please review the following examples before continuing.
# Item sequence, Class
records = [
    ("RRRWCPAGIMLLALVCLLSCLLPS [SPACA3]", "Not satisfied"),
    ("SQEREGLLIVKLEEDCAWSQELPP [ZNF263]", "Satisfied"),
    ("VYYIFERLCAPLFRNIKQEPFSAR [SOAT1]", "Not satisfied"),
    ("MPSWASARDRQPSDFKTDKEGGQA [ELOA2]", "Satisfied"),
    ("SWGWDLGRNRLYHDGKNQPSKTYP [SPSB1]", "Satisfied"),
    ("IFSVLNSDDAAAPALETQPQGDEE [SMOC2]", "Satisfied"),
    ("SSHMNIDITDDCICDLARSIDFNK [PPEF2]", "Satisfied"),
    ("EHLDNLRLNLTNTKQNFFSQTPIL [INTS3]", "Not satisfied"),
    ("PLRVDLILENTSKVPAPKDVLAHQ [NOP53]", "Satisfied"),
    ("KADTKGFCNISLFEDLPLQEPQSP [PLAGL1]", "Satisfied"),
]

Task: Given the entry LPNHKPKGTFKDYVRDRADLNKDK [ETS1] , answer whether its protein stability index meets or surpasses 3.
Output: Satisfied

Task: Given the entry DHSQRICEVWACNLDEEMKKIRQV [CNOT7] , answer whether its protein stability index meets or surpasses 3.
Output: Satisfied

Task: Given the entry TGNPKSEEPEVPDQEGLQRITGLS [SPNS1] , answer whether its protein stability index meets or surpasses 3.
Output: Satisfied

Task: Given the entry LGDMQTAREGAGLVVASGVIYCLG [KLHL12] , answer whether its protein stability index meets or surpasses 3.
Output: Not satisfied

---

Assay: protein stability index of a GFP-peptide fusion (GPS, HEK-293T) (PSI 1-6); higher = more stable
Conditions: treatment: DMSO; c terminus: a fixed tail appended
Reported property: protein stability index
Response field accepts a number only; no unit should be typed.

Per the record, QQFRADPSTASLLLCPGGLDHKLN [TIAF1] has protein stability index of 3.48

Per the record, NLFCVLRLVVEFPATGGAIPSWQI [PKD2L1] has protein stability index of 3.39

Per the record, KKEQRRLGIPKNPWLWSEQQVCQW [ETS2] has protein stability index of 2.12

Per the record, GTSTLLVWVGVIRYLTFFHNYNIL [MCOLN1] has protein stability index of 3.35

Per the record, NIQVTGSAALFYLTNSEYRSEQSV [ZER1] has protein stability index of 2.63

Per the record, LVDHVGSKTFLCIGSSVMAASLVT [SLC2A12] has protein stability index of 3.06

Per the record, EPGPAGPPPPPSPSSLGPLLPLQR [BTBD1] has protein stability index of 4.75

Per the record, PSDFFIGAVIEVFGHRFIILDTDE [EFHC1] has protein stability index of 2.32

Per the record, GRNRLYHDGKNQPSKTYPAFLEPD [SPSB1] has protein stability index of 4.13

Per the record, TYVDKKRDLLGALKHWRRAMELRH [FEM1A] has protein stability index of 2.28

Per the record, GPCKNCKMIMDTAGNDPYCFVEFH [TIA1] has protein stability index of 2.2

Per the record, AVTDLLGRRQRKSEKRRDPPNGPN [WASL] has protein stability index of 4.06

Per the record, QQELETLPTTKMAQTNPTPGSLGP [CRYBA1] has protein stability index of 5.15
